# Test system: HCT-15
# method-notes: Cytotoxicity against multidrug-resistant human HCT15 cells at 1 uM by thymidine incorporation assay
# Format: functional
Peptide text beside a SMILES is read from it.
// class assignment uses inhibition at 1 µM with these ranges: A = under 10%, B = from 10% up to 20%, C = 20% and over

Reference set, count: 4
>  <compound>
CC(C)C[C@@H]1NC(=O)[C@H](Cc2ccccc2)NC(=O)[C@H](CC(C)C)NC(=O)[C@@H](Cc2ccccc2)NC(=O)[C@H](CC(C)C)NC1=O (HELM PEPTIDE1{F.L.L.[dF].L}$PEPTIDE1,PEPTIDE1,1:R1-5:R2$$$V2.0)

>  <class>
B

$$$$
>  <compound>
CC(C)[C@@H]1NC(=O)[C@H](Cc2ccccc2)NC(=O)[C@H](C(C)C)NC(=O)[C@@H](CO)NC(=O)[C@H](C(C)C)NC1=O (HELM PEPTIDE1{F.V.V.[dS].V}$PEPTIDE1,PEPTIDE1,1:R1-5:R2$$$V2.0)

>  <class>
B

$$$$
>  <compound>
CC(C)C[C@@H]1NC(=O)[C@H](Cc2ccccc2)NC(=O)[C@@H](Cc2ccccc2)NC(=O)[C@H](C(C)C)NC(=O)[C@H](CC(C)C)NC1=O

>  <class>
B

$$$$
>  <compound>
CC(C)C[C@@H]1C(=O)N[C@H](Cc2ccccc2)C(=O)N[C@H](CC(C)C)C(=O)N[C@H](CC(C)C)C(=O)N[C@H](C(C)C)C(=O)N1C (HELM PEPTIDE1{[dF].[dL].[dL].[dV].[CC(C)C[C@H](C(=O)[*:2])N(C)[*:1]]}$PEPTIDE1,PEPTIDE1,1:R1-5:R2$$$V2.0)

>  <class>
A

$$$$

In: Kindly state the category for this compound: CC(C)C[C@@H]1NC(=O)[C@H](Cc2ccccc2)NC(=O)[C@H](CC(C)C)NC(=O)[C@@H](C(C)C)NC(=O)[C@H](CCCCN)NC1=O (HELM PEPTIDE1{F.L.K.[dV].L}$PEPTIDE1,PEPTIDE1,1:R1-5:R2$$$V2.0)
Out: B

In: Also check CC[C@H]1NC(=O)[C@H](C(C)C)NC(=O)[C@H](C(C)C)NC(=O)[C@H](Cc2ccccc2)NC(=O)[C@H](C(C)C)NC1=O (HELM PEPTIDE1{F.V.V.[CC[C@@H](N[*:1])C(=O)[*:2]].V}$PEPTIDE1,PEPTIDE1,1:R1-5:R2$$$V2.0)
Out: A

In: Also check CC[C@@H]1NC(=O)[C@H](CC(C)C)NC(=O)[C@H](CC(C)C)NC(=O)[C@H](Cc2ccccc2)NC(=O)[C@H](CC(C)C)NC1=O (HELM PEPTIDE1{[Abu].L.F.L.L}$PEPTIDE1,PEPTIDE1,1:R1-5:R2$$$V2.0)
Out: A

---

# Test system: HCT-15
# method-notes: Cytotoxicity against multidrug-resistant human HCT15 cells at 1 uM by thymidine incorporation assay
# Assay type: functional
Peptide text beside a SMILES is read from it.
assay-endpoint: inhibition at 1 µM

Some entries whose results are on file:
>  <compound>
CC(C)C[C@@H]1NC(=O)[C@H](C(C)C)NC(=O)[C@@H](CC(C)C)NC(=O)[C@@H](CC(C)C)NC(=O)[C@H](Cc2ccccc2)NC1=O (HELM PEPTIDE1{F.[dL].[dL].V.L}$PEPTIDE1,PEPTIDE1,1:R1-5:R2$$$V2.0)

>  <assay-endpoint>
inhibition at 1 µM

>  <observed>
40%

$$$$
>  <compound>
CC(C)C[C@@H]1C(=O)N[C@H](CC(C)C)C(=O)N(C)[C@H](C(C)C)C(=O)N[C@H](CC(C)C)C(=O)N[C@H](Cc2ccccc2)C(=O)N1C (HELM PEPTIDE1{[dF].[CC(C)C[C@H](C(=O)[*:2])N(C)[*:1]].[dL].[CC(C)[C@H](C(=O)[*:2])N(C)[*:1]].[dL]}$PEPTIDE1,PEPTIDE1,1:R1-5:R2$$$V2.0)

>  <assay-endpoint>
inhibition at 1 µM

>  <observed>
48%

$$$$

In: I'd like to know its inhibition at 1 µM. The compound in question is CC(C)C[C@@H]1NC(=O)[C@H](Cc2ccccc2)NC(=O)[C@@H](CC(C)C)N(C)C(=O)[C@@H](C(C)C)N(C)C(=O)[C@H](CC(C)C)NC1=O (HELM PEPTIDE1{F.L.L.[CC(C)[C@H](C(=O)[*:2])N(C)[*:1]].[CC(C)C[C@H](C(=O)[*:2])N(C)[*:1]]}$PEPTIDE1,PEPTIDE1,1:R1-5:R2$$$V2.0)
Out: 7%
